Readings of growth for the listed compounds
System: SF-268 CNS
Experiment: NCI-60 one-dose screen, 48 h (100 = growth as untreated, 0 = no growth, -100 = all killed)
Conditions: 10 µM unless noted
About 83,000 compounds went through this panel and 20% of them were active in at least one assay; those are over-represented in the sample as a whole.
Entry rule: numbers only, all in %.

Some solved cases for reference:
compound: Cc1n(Cc2ccc3ccccc3n2)cc[n+]1Cc1ccc2ccccc2c1
unit.of.measure: %
reported.measurement: 20.8
//
compound: O=C(CS)OCC(COC(=O)CS)(COC(=O)CS)COC(=O)CS
unit.of.measure: %
reported.measurement: 82.7

Prompt: State the recorded growth for this entry: `CN1CCN(Cc2ccc(NC(=O)c3cncc(C#Cc4ncc5ccccn45)c3)cc2C(F)(F)F)CC1`
Response: 15.4

Prompt: State the recorded growth for this entry: `O=C(Nc1cnc(C(F)(F)F)cn1)c1cc(Cl)ccc1O`
Response: 18.2

Prompt: State the recorded growth for this entry: COc1cc(C2CC(c3ccc(Cl)cc3)=NN2C=O)ccc1OS(=O)(=O)c1ccc(C)cc1 (stereo not given)
Response: 100
